Origin of values: paper PMC10782225

# key: entry, value: kon
# Assayed target: human α7β2‐nAChR (Homo sapiens, UniProt P17787+P36544)
# Construct: expressed in transfected cells; host or cells: Xenopus laevis oocytes, cRNA injection
# Sequence (P36544 23-502 limits assumed): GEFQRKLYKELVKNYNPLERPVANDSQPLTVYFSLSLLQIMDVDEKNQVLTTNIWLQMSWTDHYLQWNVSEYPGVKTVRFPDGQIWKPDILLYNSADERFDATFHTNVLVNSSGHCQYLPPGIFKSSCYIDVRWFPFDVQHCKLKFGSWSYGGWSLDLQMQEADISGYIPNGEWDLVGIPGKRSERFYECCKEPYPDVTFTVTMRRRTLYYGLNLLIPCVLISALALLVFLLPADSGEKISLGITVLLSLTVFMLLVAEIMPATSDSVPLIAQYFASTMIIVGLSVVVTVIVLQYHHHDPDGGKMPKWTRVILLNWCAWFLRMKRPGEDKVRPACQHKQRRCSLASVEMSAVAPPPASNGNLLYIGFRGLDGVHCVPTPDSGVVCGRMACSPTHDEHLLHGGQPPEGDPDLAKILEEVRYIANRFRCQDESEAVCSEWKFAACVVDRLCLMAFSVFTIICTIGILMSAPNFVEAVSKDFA
# Sequence (P17787 26-502 limits assumed): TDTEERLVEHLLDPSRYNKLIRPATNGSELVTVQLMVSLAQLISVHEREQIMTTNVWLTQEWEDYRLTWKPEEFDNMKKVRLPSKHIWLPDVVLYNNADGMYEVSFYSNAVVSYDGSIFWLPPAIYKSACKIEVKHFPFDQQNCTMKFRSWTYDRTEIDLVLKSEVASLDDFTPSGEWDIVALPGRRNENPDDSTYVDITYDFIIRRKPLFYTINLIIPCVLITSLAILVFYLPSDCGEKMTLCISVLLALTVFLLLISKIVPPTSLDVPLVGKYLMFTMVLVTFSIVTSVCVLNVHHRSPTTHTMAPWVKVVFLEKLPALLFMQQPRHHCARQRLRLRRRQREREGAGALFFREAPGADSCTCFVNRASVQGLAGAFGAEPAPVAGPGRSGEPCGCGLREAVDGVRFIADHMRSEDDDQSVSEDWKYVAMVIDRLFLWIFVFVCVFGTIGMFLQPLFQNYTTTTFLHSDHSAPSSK
# Protocol summary: cell-based
# Condition info: read-out: k on α7β2; SEM
Your answer is read as M⁻¹ s⁻¹, so omit the unit and give the number.

NCC(=O)N[C@H]1CSSC[C@@H]2NC(=O)[C@@H]3CCCN3C(=O)[C@@H]3CCCN3C(=O)[C@H](Cc3c[nH]cn3)NC(=O)[C@H](CO)NC(=O)[C@H](CSSC[C@@H](C(N)=O)NC(=O)[C@H](Cc3ccc(O)cc3)NC(=O)[C@H](CC(=O)O)NC(=O)[C@@H]3CCCN3C(=O)[C@H](CC(N)=O)NC(=O)[C@H](CC(N)=O)NC(=O)[C@H](Cc3ccc(O)cc3)NC(=O)[C@H](Cc3ccccc3)NC2=O)NC1=O [[L10Y]] = 50200

Now look at this entry.
query: Record lookup: for human α7β2‐nAChR (Homo sapiens, UniProt P17787+P36544), what kon belongs to CC(C)C[C@@H]1NC(=O)[C@H](CC(C)C)NC(=O)[C@@H]2CSSC[C@H](NC(=O)CN)C(=O)N[C@@H](CSSC[C@@H](C(N)=O)NC(=O)[C@H](Cc3ccc(O)cc3)NC(=O)[C@H](CC(=O)O)NC(=O)[C@@H]3CCCN3C(=O)[C@H](CC(N)=O)NC(=O)[C@H](CC(N)=O)NC1=O)C(=O)N[C@@H](CO)C(=O)N[C@@H](Cc1c[nH]cn1)C(=O)N1CCC[C@H]1C(=O)N1CCC[C@H]1C(=O)N2 [[F9L]] ?
result: 20500
